Values compiled from ChEMBL document CHEMBL4387766.

# experiment-notes: Selectivity ratio of CC50 for human PSMA-deficient PC3 cells to CC50 for PSMA-positive human 22Rv1 cells
# Type: functional
For each entry below, report its Selectivity ratio value.
Please state the value as a number alone, without comment.

Returns the measured Selectivity ratio for the input molecule. Input: CC(=O)O[C@H]1C(=O)[C@@]2(C)[C@H]([C@H](OC(=O)c3ccccc3)[C@]3(O)C[C@H](OC(=O)[C@H](OC(=O)CCCc4cn(CCCCCCCCCCC(=O)N(CCCC[C@H](NC(=O)N[C@@H](CCC(=O)O)C(=O)O)C(=O)O)Cc5ccc(Cl)cc5)nn4)[C@@H](NC(=O)c4ccccc4)c4ccccc4)C(C)=C1C3(C)C)[C@]1(OC(C)=O)CO[C@@H]1C[C@@H]2O
0.24

Param item: CC(=O)O[C@H]1C(=O)[C@@]2(C)[C@H]([C@H](OC(=O)c3ccccc3)[C@]3(O)C[C@H](OC(=O)[C@H](OC(=O)CCCc4cn(CCCCCNC(=O)NCCCC[C@H](NC(=O)N[C@@H](CCC(=O)O)C(=O)O)C(=O)O)nn4)[C@@H](NC(=O)c4ccccc4)c4ccccc4)C(C)=C1C3(C)C)[C@]1(OC(C)=O)CO[C@@H]1C[C@@H]2O
1.09

Entry CC(=O)O[C@H]1C(=O)[C@@]2(C)[C@H]([C@H](OC(=O)c3ccccc3)[C@]3(O)C[C@H](OC(=O)[C@H](OC(=O)CCCc4cn(CCCCCCCCCCC(=O)N(CCCC[C@H](NC(=O)N[C@@H](CCC(=O)O)C(=O)O)C(=O)O)Cc5ccc(F)cc5)nn4)[C@@H](NC(=O)c4ccccc4)c4ccccc4)C(C)=C1C3(C)C)[C@]1(OC(C)=O)CO[C@@H]1C[C@@H]2O please
0.62

Okay, and CC(=O)O[C@H]1C(=O)[C@@]2(C)[C@H]([C@H](OC(=O)c3ccccc3)[C@]3(O)C[C@H](OC(=O)[C@H](OC(=O)CCCc4cn(CCCCCC(=O)N(CCCC[C@H](NC(=O)N[C@@H](CCC(=O)O)C(=O)O)C(=O)O)Cc5ccc(O)cc5)nn4)[C@@H](NC(=O)c4ccccc4)c4ccccc4)C(C)=C1C3(C)C)[C@]1(OC(C)=O)CO[C@@H]1C[C@@H]2O ?
2.19

Do the same for CC(=O)O[C@H]1C(=O)[C@@]2(C)[C@H]([C@H](OC(=O)c3ccccc3)[C@]3(O)C[C@H](OC(=O)[C@H](OC(=O)CCCc4cn(CCCCCC(=O)N(CCCC[C@H](NC(=O)N[C@@H](CCC(=O)O)C(=O)O)C(=O)O)Cc5ccc(Br)cc5)nn4)[C@@H](NC(=O)c4ccccc4)c4ccccc4)C(C)=C1C3(C)C)[C@]1(OC(C)=O)CO[C@@H]1C[C@@H]2O please
1.15

And then CC(=O)O[C@H]1C(=O)[C@@]2(C)[C@H]([C@H](OC(=O)c3ccccc3)[C@]3(O)C[C@H](OC(=O)[C@H](OC(=O)CCCc4cn(CCCCCC(=O)N(CCCC[C@H](NC(=O)N[C@@H](CCC(=O)O)C(=O)O)C(=O)O)Cc5ccc(F)cc5)nn4)[C@@H](NC(=O)c4ccccc4)c4ccccc4)C(C)=C1C3(C)C)[C@]1(OC(C)=O)CO[C@@H]1C[C@@H]2O , what is it?
0.82

Follow-up entry: CC(=O)O[C@H]1C(=O)[C@@]2(C)[C@H]([C@H](OC(=O)c3ccccc3)[C@]3(O)C[C@H](OC(=O)[C@H](O)[C@@H](NC(=O)c4ccccc4)c4ccccc4)C(C)=C1C3(C)C)[C@]1(OC(C)=O)CO[C@@H]1C[C@@H]2O
1

Ok, now CC(=O)O[C@H]1C(=O)[C@@]2(C)[C@H]([C@H](OC(=O)c3ccccc3)[C@]3(O)C[C@H](OC(=O)[C@H](OC(=O)CCCc4cn(CCCCCC(=O)N(CCCC[C@H](NC(=O)N[C@@H](CCC(=O)O)C(=O)O)C(=O)O)Cc5ccc(Cl)cc5)nn4)[C@@H](NC(=O)c4ccccc4)c4ccccc4)C(C)=C1C3(C)C)[C@]1(OC(C)=O)CO[C@@H]1C[C@@H]2O
0.91

Then what about the molecule CC(=O)O[C@H]1C(=O)[C@@]2(C)[C@H]([C@H](OC(=O)c3ccccc3)[C@]3(O)C[C@H](OC(=O)[C@H](OC(=O)CCCc4cn(CCCCCCCCCCC(=O)NCCCC[C@H](NC(=O)N[C@@H](CCC(=O)O)C(=O)O)C(=O)O)nn4)[C@@H](NC(=O)c4ccccc4)c4ccccc4)C(C)=C1C3(C)C)[C@]1(OC(C)=O)CO[C@@H]1C[C@@H]2O ?
1.2

What about this molecule? CC(=O)O[C@H]1C(=O)[C@]2(C)[C@@H](OC(=O)CCCc3cn(CCCCCCCCCCC(=O)NCCCC[C@H](NC(=O)N[C@@H](CCC(=O)O)C(=O)O)C(=O)O)nn3)C[C@H]3OC[C@@]3(OC(C)=O)[C@H]2[C@H](OC(=O)c2ccccc2)[C@]2(O)C[C@H](OC(=O)[C@H](O)[C@@H](NC(=O)c3ccccc3)c3ccccc3)C(C)=C1C2(C)C
1.61
